molecular target: mOat1 (Mus musculus); test: Inhibition of mOat1-mediated [3H]PAH uptake in CHO-mOat1 cells (cell accumulation assay); conditions: 5 μM [3H]PAH, 2 min, CHO-mOat1; mean ± S.E.M. (n = 3); from IC50 via Cheng-Prusoff; read-out: Estimated K i for mOat1-mediated transport
Sequence (Q8VC69 whole entry): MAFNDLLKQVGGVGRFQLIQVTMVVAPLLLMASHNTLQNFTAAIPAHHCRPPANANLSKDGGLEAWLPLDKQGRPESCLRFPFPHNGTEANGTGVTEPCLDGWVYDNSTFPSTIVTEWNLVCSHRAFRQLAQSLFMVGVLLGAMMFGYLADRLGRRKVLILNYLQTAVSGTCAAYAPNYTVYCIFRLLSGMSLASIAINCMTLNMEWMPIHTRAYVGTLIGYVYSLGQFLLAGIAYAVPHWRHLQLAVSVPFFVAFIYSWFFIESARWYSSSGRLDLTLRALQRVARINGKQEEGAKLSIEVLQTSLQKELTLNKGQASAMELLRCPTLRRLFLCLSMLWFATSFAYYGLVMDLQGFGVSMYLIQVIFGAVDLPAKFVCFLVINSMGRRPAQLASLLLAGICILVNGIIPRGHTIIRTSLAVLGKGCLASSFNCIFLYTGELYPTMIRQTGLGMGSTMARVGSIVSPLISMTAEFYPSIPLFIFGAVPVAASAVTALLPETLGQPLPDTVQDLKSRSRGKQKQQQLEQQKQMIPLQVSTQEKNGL
pKi: −log10 of the molar value.
Quantity: pKi

[[record]]
mol = "O=C(/C=C/c1ccc(O)c2c1[C@H](C(=O)O)[C@@H](c1ccc(O)c(O)c1)O2)O[C@H](Cc1ccc(O)c(O)c1)C(=O)O"
quantity = "pKi"
recorded_value = 4.83

[[record]]
mol = "O=C(/C=C/c1ccc(O)c(O)c1/C=C/c1ccc(O)c(O)c1)O[C@H](Cc1ccc(O)c(O)c1)C(=O)O"
quantity = "pKi"
recorded_value = 5.31

[[record]]
mol = "O=C(/C=C/c1ccc(O)c(O)c1)O[C@H](Cc1ccc(O)c(O)c1)C(=O)O"
quantity = "pKi"
recorded_value = 5.26


----------
Each record here notes measured inhibition at 1000 µM.
molecular target: mOat3 (Mus musculus); construct: expressed in transfected cells; host or cells: CHO (Chinese hamster ovary), stably transfected (CHO-mOat3); assay: Inhibition of mOat3-mediated [3H]ES uptake in CHO-mOat3 cells (cell accumulation assay); assay type: cell-based, murine; details: 1 mM (1000 μM) inhibitor, 1 μM [3H]ES, 10 min, CHO-mOat3 cells; read-out: inhibition of mOat3-mediated ES uptake
Sequence (O88909 whole entry): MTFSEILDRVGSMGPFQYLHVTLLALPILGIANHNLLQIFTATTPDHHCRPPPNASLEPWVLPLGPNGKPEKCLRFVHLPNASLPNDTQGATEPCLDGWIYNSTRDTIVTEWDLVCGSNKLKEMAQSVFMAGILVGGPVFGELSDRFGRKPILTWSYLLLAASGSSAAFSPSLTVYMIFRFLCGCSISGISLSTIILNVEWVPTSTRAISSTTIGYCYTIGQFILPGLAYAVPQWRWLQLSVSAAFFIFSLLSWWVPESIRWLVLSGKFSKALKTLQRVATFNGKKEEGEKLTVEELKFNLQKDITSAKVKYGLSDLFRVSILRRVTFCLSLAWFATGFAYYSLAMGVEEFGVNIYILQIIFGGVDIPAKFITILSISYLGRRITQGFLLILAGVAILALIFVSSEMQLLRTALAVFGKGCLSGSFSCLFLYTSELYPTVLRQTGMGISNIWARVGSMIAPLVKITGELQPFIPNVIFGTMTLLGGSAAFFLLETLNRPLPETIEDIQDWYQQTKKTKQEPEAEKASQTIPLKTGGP
Quantity: inhibition at 1000 µM

[[record]]
molecule = "O=C(/C=C/c1ccc(O)c(O)c1/C=C/c1ccc(O)c(O)c1)O[C@H](Cc1ccc(O)c(O)c1)C(=O)O"
recorded_value = "> 91%"

[[record]]
molecule = "O=C(/C=C/c1ccc(O)c2c1[C@H](C(=O)O)[C@@H](c1ccc(O)c(O)c1)O2)O[C@H](Cc1ccc(O)c(O)c1)C(=O)O"
recorded_value = "> 91%"

[[record]]
molecule = "O=C(/C=C/c1ccc(O)c(O)c1)O[C@H](Cc1ccc(O)c(O)c1)C(=O)O"
recorded_value = "> 91%"

[[record]]
molecule = "O=C(O)C(O)Cc1ccc(O)c(O)c1 (centres unmarked)"
recorded_value = "~55%"

[[record]]
molecule = "CCCN(CCC)S(=O)(=O)c1ccc(C(=O)O)cc1 [probenecid, reference compound]"
recorded_value = "> 91%"


----------
molecular target: mOat3 (Mus musculus); construct: expressed in transfected cells; host or cells: CHO (Chinese hamster ovary), stably transfected (CHO-mOat3); assay: Inhibition of mOat3-mediated [3H]ES uptake in CHO-mOat3 cells (cell accumulation assay); format: cell-based, murine; settings: 1 μM [3H]ES, 1 min, CHO-mOat3; mean ± S.E.M. (n = 3); from IC50 via Cheng-Prusoff; read-out: Estimated K i for mOat3-mediated transport
pKi: −log10 of the molar value.
Each record here notes measured pKi.
Quantity: pKi

[[record]]
mol = "O=C(/C=C/c1ccc(O)c(O)c1)O[C@H](Cc1ccc(O)c(O)c1)C(=O)O"
quantity = "pKi"
recorded_value = 5.37

[[record]]
mol = "O=C(/C=C/c1ccc(O)c2c1[C@H](C(=O)O)[C@@H](c1ccc(O)c(O)c1)O2)O[C@H](Cc1ccc(O)c(O)c1)C(=O)O"
quantity = "pKi"
recorded_value = 4.51

[[record]]
mol = "O=C(/C=C/c1ccc(O)c(O)c1/C=C/c1ccc(O)c(O)c1)O[C@H](Cc1ccc(O)c(O)c1)C(=O)O"
quantity = "pKi"
recorded_value = 4.67


----------
molecular target: mOat1 (Mus musculus); construct: expressed in transfected cells; host or cells: CHO (Chinese hamster ovary), stably transfected (CHO-mOat1); assay: Inhibition of mOat1-mediated [3H]PAH uptake in CHO-mOat1 cells (cell accumulation assay); assay type: cell-based, murine; details: 1 mM (1000 μM) inhibitor, 5 μM [3H]PAH, 10 min, CHO-mOat1 cells; read-out: inhibition of mOat1-mediated PAH uptake
Quantity: inhibition at 1000 µM

[[record]]
compound = "O=C(/C=C/c1ccc(O)c(O)c1)O[C@H](Cc1ccc(O)c(O)c1)C(=O)O"
recorded_value = "> 95%"

[[record]]
compound = "O=C(/C=C/c1ccc(O)c(O)c1/C=C/c1ccc(O)c(O)c1)O[C@H](Cc1ccc(O)c(O)c1)C(=O)O"
recorded_value = "> 95%"

[[record]]
compound = "O=C(O)C(O)Cc1ccc(O)c(O)c1 (stereo not shown)"
recorded_value = "70 to 85%"

[[record]]
compound = "O=C(/C=C/c1ccc(O)c2c1[C@H](C(=O)O)[C@@H](c1ccc(O)c(O)c1)O2)O[C@H](Cc1ccc(O)c(O)c1)C(=O)O"
recorded_value = "70 to 85%"

